Ref: the supplement of paper PMC10567573

Provide the reported protein stability index of each item.
- assayInfo: protein stability index of a GFP-peptide fusion (GPS, HEK-293T) (PSI 1-6); higher = more stable;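 also: 24-mer peptide tiles fused after GFP, lentivirally expressed, FACS-sorted into six equal bins by GFP/DsRed ratio, decoded by Illumina sequencing, PSI is the read-weighted mean bin number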
- measurementSetup: treatment: MLN4924 1 uM, 8 h; c terminus: a fixed tail appended
Answers are plain numbers.

Some solved cases for reference:
Could you tell me which protein stability index is on file for LEEVERAILEMKWKVRAEKEACQR [ZBED2] ?
3.76

Could you tell me which protein stability index is on file for GPIPSHMIHRTRKQKYFYKGGLVW [CLK3] ?
2.45

Working through the 4 sequences below one at a time, give protein stability index for each.
1. PLYLLTWKIAPAMAAGNTVIAKPS [ALDH8A1]
2. ALVYSITAQSTFNDLQDLREQILR [RAP1B]
3. DIVEFVCKSGYHPTKSHSFRAMCQ [CFHR2]
4. ASNWSTTGFGQGQGYTINVPWNQV [HDAC6]

1. 2.11
2. 2.42
3. 2.09
4. 2.22

Working through the 4 sequences below one at a time, give protein stability index for each.
1. LEVKIHDWYQKQTPTSPECDYSQY [KRT15]
2. ARIQTLEPDNWMKEVMLFGHGTRK [RSAD1]
3. ELLLFAVGFIMAGTPMALIVISYI [OR3A1]
4. GMQMAEDSKSLKTHQTQPGIRRAR [NET1]

1. 2.94
2. 3.33
3. 3.09
4. 4.69

Working through the 2 sequences below one at a time, give protein stability index for each.
1. RKADFKAGKALVISGREVFEFRPE [ZC3H15]
2. KPYKCQQCDKRFRWSSDLNKHLTT [ZNF75A]

3.38
2.37

====

- assayInfo: protein stability index of a GFP-peptide fusion (GPS, HEK-293T) (PSI 1-6); higher = more stable
- measurementSetup: treatment: DMSO; c terminus: a fixed tail appended
I would appreciate it if you labelled entries fulfilled when protein stability index is 3 or higher, otherwise not fulfilled.

Check out these entries, answers already filled in.
I'd appreciate it if you could say whether STRVCLQPIRGVEGSDYINASFID [PTPRD] has protein stability index at least equal to 3.
fulfilled

I'd appreciate it if you could say whether ATLFFNPQESAILQLFHQDGTFSP [CLCN6] has protein stability index at least equal to 3.
not fulfilled

I'd appreciate it if you could say whether IASIGRHRYIAYMANQEAAIQAFL [IQUB] has protein stability index at least equal to 3.
not fulfilled

# next sequence below
I'd appreciate it if you could say whether ERSMSENAVRQNGQLVRNDSLWHR [MFF] has protein stability index at least equal to 3.
fulfilled

====

- assayInfo: protein stability index of a GFP-peptide fusion (GPS, HEK-293T) (PSI 1-6); higher = more stable
- measurementSetup: treatment: DMSO; c terminus: a fixed tail appended
Provide the reported protein stability index of each item.
Give bare numbers.

Could you tell me which protein stability index is on file for FHELQMQVTASDSGDPPLSSNVSL [PCDHGA10] ?
2.93

Could you tell me which protein stability index is on file for AVLGGFLYAVGGQDGVSCLNIVER [KLHL20] ?
2.16

Could you tell me which protein stability index is on file for CGYFQVVNYTQGLWEKVMPSRYAA [SLC19A2] ?
2.7

Could you tell me which protein stability index is on file for ELQQELSLKDQERVAEVSRVRVEL [LRRC45] ?
3.5

Working through the 3 sequences below one at a time, give protein stability index for each.
1. RADEPQWSLYPSDSQVSEEVKTRH [CHGB]
2. CGRYINGHMLQHHGNSGHPLVLSY [HDAC6]
3. GIKTVIVNMVDVAKALNRPPTYPT [EIF5]

1: 5.18; 2: 2.51; 3: 2.32

Working through the 3 sequences below one at a time, give protein stability index for each.
1. SSAAMQSSCSSTSGGGGGGGGGGG [CCDC6]
2. YRHVMLPKDIAKLVPKTHLMSESE [CKS1B]
3. GLETLFSKAQELGGAGREDPGLWS [ZSWIM9]

[5.2, 3.75, 3.18]

Working through the 5 sequences below one at a time, give protein stability index for each.
1. LVELPASFRELLTFFCTNATIHGA [SCNN1D]
2. KGDSTIRELKAKLSGVEEELQRTK [SASS6]
3. TTCSTPLLNSPPSFVCWSRGFMEM [AUP1]
4. YSSGEFSSGRKWGDDAPKEEVDTG [INTS4]
5. TAEDSNDIYILPSDNSGQVSPPES [BCL2L13]

1. 2.79
2. 4.86
3. 2.21
4. 3.1
5. 5.2

Working through the 5 sequences below one at a time, give protein stability index for each.
1. GMQMAEDSKSLKTHQTQPGIRRAR [NET1]
2. LIALLTWGYIRYSGQYRELGGAID [ATL3]
3. HCWDVAGAGIIVTEAGGVLMDVTG [IMPA1]
4. SLRKAIETVYAAYLPKNTHPFLYL [MLH1]
5. SFSTAIGRTCITDLQLTVGGAQAS [MFSD9]

[4.78, 3.4, 2.4, 3.76, 2.5]

Working through the 7 sequences below one at a time, give protein stability index for each.
1. VYSVSVDQKERCIIVRTTNKKYYK [DPCD]
2. VLNVAGEAGGKQKAVEEELDAEDR [SLC6A17]
3. RGMDLSWESRTGDQYSYSSLVMGS [LCOR]
4. DSLLVVLDMDEGTLSFIVDGQYLG [SPSB4]
5. SQDLLPPPNPYPLPQEHSQIYHCT [TBX5]
6. AGSSHTPSSQSSSGGGRDSSSSIL [ELOA2]
7. RFRSCNTEDCPTGSALTFREEQCA [ADAMTS4]

[2.14, 5.72, 2.65, 2.52, 4.02, 4.82, 3.75]

Working through the 5 sequences below one at a time, give protein stability index for each.
1. EERLKLSPSPSSRVTVSRASSSRS [LMNB1]
2. KLKNLRRKQRRRERWLQKQGKYSG [RNF180]
3. DANLDECIPATVRSSFANQGEICL [ALDH8A1]
4. SHGYDMSTFIRRYSRYLNEKAFSY [SNAP91]
5. SPEPPSLYGALNPQYEFKEAAGSF [IRX6]

[4.94, 3.83, 4.08, 2.17, 3.47]

Working through the 5 sequences below one at a time, give protein stability index for each.
1. ERMPPSGAARSFQEVTEPAVVAVD [PXN]
2. KREACHCEEVKMTVASEAKIQLSD [FAN1]
3. PDPTPPEPEEEILGSDDEEQEDPA [SRPK2]
4. GLKGRTLYPAVSAVWGQCQVRIRY [SPSB2]
5. TVLVSVTVFDANDNAPVFTLPEYR [PCDHGA10]

4.95
4.76
5.62
2.98
2.76

Working through the 8 sequences below one at a time, give protein stability index for each.
1. IYQYVQNSMAPHPARDYVVLRTWR [DLC1]
2. TQLFIGGVTGWCTGFIFQKVGKLA [FUNDC2]
3. AACIAYIRLTQYIDGQGRPRTSQS [CAMK2B]
4. QFYMFGWTHVTLLIVVTQSHLVIH [CDS2]
5. QSFGVASASSIKQILLEWCRSKTL [SMTNL2]
6. DFALHYCLHHVHYLATEYLETHFR [GAN]
7. EDSLATVKVVLIPVGQEIVIPFKV [IQUB]
8. HHVEREKDHSSSRPSSPRPQKASP [BTBD10]

1: 1.93; 2: 2.33; 3: 2.24; 4: 2.85; 5: 2.41; 6: 3.08; 7: 2.86; 8: 5.36

====

Provide the reported protein stability index of each item.
- assayInfo: protein stability index of a GFP-peptide fusion (GPS, HEK-293T) (PSI 1-6); higher = more stable
- measurementSetup: treatment: MLN4924 1 uM, 8 h; c terminus: a fixed tail appended
Answers are plain numbers.

Some solved cases for reference:
Could you tell me which protein stability index is on file for SNEQLKVTQEPRAKKGRRNQSVEP [ZMYND11] ?
5.12

Could you tell me which protein stability index is on file for RAGKMLMTLPLLRQTSTKAVQHFY [ESRRG] ?
2.16

Could you tell me which protein stability index is on file for TLREITDQEHNVAALKQAIKDKEA [TEKT4] ?
4.88

Working through the 7 sequences below one at a time, give protein stability index for each.
1. RLGWQQQAELQELEERLQLQFEAE [MTUS2]
2. QIQKYTDCLQFYVNSTLKELRRLF [RTN1]
3. SFMMGQGGEAAHHTRSPYSTFYPP [NEUROD6]
4. VENGDFNWIVPGKFLAFSGPHPKS [CDC14A]
5. ETKGQINNSIKDLTDGHFENILAD [SERPINB5]
6. ARGLDDAAARGGQCPGLGPAPTPT [ZBED3]
7. PRMNEVYTRLGEMNNAVRNLQELL [CEP70]

1. 4.65
2. 2.55
3. 2.84
4. 2.92
5. 4.9
6. 4.7
7. 3.86

Working through the 3 sequences below one at a time, give protein stability index for each.
1. LLLPGIYTVSATAPGYDPETVTVT [CPN1]
2. GKPPTAHLDRTSVSSLSEVEEVDM [ELOA2]
3. DFALHYCLHHVHYLATEYLETHFR [GAN]

1. 2.17
2. 5.41
3. 3.11
